# Lookup of reported self-cleavage keyed by entry
B1: LINE1-full (parent)
chain: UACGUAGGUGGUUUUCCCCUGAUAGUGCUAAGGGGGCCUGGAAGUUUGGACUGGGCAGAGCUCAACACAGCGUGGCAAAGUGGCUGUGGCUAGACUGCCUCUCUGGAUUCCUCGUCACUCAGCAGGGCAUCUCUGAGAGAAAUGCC

# Variants of: B1
# assayName: self-cleavage, relative activity (ratio to wild type); higher = more cleavage; in vitro, sequencing; the parent is a self-cleaving ribozyme
The response must contain the number and no unit.

Solved entries:
- G41A U47A: 1.77
- U46G C103A: 1.25

Identify measured self-cleavage associated with U15C G97A
0.06

Specify self-cleavage for C71U A77G and stop.
0.86
